Molecular target: UniProt P24941
Assay: FlashPlate kinase assay, IC50 measurement, cyclin E-CDK2
Assay type: biochemical
Readout: IC50 (nM)
Write the answer as a number in nM, unit excluded.

INPUT: Return reported IC50; argument: "COc1cc(F)c(F)c(F)c1C(=O)c1cnc(NC2CCN(S(C)(=O)=O)CC2)nc1N"
OUTPUT: 2

###

Molecular target: human cyclin E-CDK2 (Homo sapiens)
Test: FlashPlate kinase assay, IC50 measurement, cyclin E-CDK2
Format: biochemical
Conditions: Rb protein substrate, 1 μM ATP; unit inferred; read-out: CDK2 IC50
Quick reference: IC50 of the listed items.
Give me the value, and tack the unit on after it.

INPUT: Which measured IC50 belongs to COc1ccc(F)c(F)c1C(=O)c1cnc(NC2CCN(S(=O)(=O)CCCN3CCN(C)CC3)CC2)nc1N [Example 228] , tested on human cyclin E-CDK2 (Homo sapiens)?
OUTPUT: 17 nM

Shifting focus to the compound that follows.
INPUT: Which measured IC50 belongs to COc1cc(F)c(F)c(F)c1C(=O)c1cnc(NC2CCN(C(C)=O)CC2)nc1N [Example 204] , tested on human cyclin E-CDK2 (Homo sapiens)?
OUTPUT: 51 nM

###

Quick record: IC50, human cyclin B-CDK1 (Homo sapiens, UniProt P06493).
Write the answer as a number in µM, unit excluded.

# count of solved cases: 3
INPUT: Which measured IC50 belongs to COc1cc(F)c(F)c(F)c1C(=O)c1cnc(NC2CCN(S(C)(=O)=O)CC2)nc1N [Example 207] , tested on human cyclin B-CDK1 (Homo sapiens, UniProt P06493)?
OUTPUT: 0.005

INPUT: Which measured IC50 belongs to COc1ccccc1C(=O)c1cnc(Nc2ccc(N3CCN(C(C)C)CC3)cc2)nc1N [Example 8] , tested on human cyclin B-CDK1 (Homo sapiens, UniProt P06493)?
OUTPUT: 3.56

INPUT: Which measured IC50 belongs to COc1ccc(F)c(F)c1C(=O)c1cnc(N[C@H]2CC[C@H](NCCO)CC2)nc1N [Example 290] , tested on human cyclin B-CDK1 (Homo sapiens, UniProt P06493)?
OUTPUT: 0.018

Shifting focus to the compound that follows.
INPUT: Which measured IC50 belongs to COc1ccc(F)c(F)c1C(=O)c1cnc(N[C@H]2CC[C@H](N3CCCS3(=O)=O)CC2)nc1N [Example 298] , tested on human cyclin B-CDK1 (Homo sapiens, UniProt P06493)?
OUTPUT: 0.028

###

Quick reference: pIC50 of the listed items.
Target: human cyclin D1-CDK4 (Homo sapiens, UniProt P11802)
Sequence (P11802 whole entry): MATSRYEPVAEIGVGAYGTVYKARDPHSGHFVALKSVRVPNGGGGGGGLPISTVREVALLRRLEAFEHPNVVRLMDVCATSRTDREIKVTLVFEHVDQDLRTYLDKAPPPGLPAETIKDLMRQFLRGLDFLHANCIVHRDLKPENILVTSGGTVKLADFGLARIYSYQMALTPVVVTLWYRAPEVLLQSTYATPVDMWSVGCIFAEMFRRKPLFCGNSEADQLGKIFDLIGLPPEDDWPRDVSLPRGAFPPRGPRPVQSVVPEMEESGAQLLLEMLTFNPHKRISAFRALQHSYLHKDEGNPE
Sequence (P24385 whole entry partner): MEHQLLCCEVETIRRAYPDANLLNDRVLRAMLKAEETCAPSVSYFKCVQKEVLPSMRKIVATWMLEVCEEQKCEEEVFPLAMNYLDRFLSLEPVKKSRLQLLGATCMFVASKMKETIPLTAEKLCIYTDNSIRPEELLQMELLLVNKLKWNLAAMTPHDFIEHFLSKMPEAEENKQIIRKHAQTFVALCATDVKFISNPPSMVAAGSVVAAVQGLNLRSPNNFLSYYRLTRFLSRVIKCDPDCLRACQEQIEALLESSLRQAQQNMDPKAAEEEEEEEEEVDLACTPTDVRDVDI
Assay: FlashPlate kinase assay, IC50 measurement, cyclin D1-CDK4
Settings: Rb protein substrate, 1 μM ATP
Lab note: report pIC50 as minus log10 of the concentration in molar units, number only.

# count of solved cases: 3
INPUT: Return reported pIC50; argument: "COc1cc(F)c(F)c(F)c1C(=O)c1cnc(NC2CCN(S(C)(=O)=O)CC2)nc1N"
OUTPUT: 9.00

INPUT: Return reported pIC50; argument: "COc1cc(F)c(F)c(F)c1C(=O)c1cnc(NC2CCN(C(C)=O)CC2)nc1N"
OUTPUT: 8.00

INPUT: Return reported pIC50; argument: "COc1ccc(F)c(F)c1C(=O)c1cnc(N[C@H]2CC[C@H](N3CCCS3(=O)=O)CC2)nc1N"
OUTPUT: 8.30

Shifting focus to the molecule that follows.
INPUT: Return reported pIC50; argument: COC(=O)N1CCCC(Nc2ncc(C(=O)c3ccccc3OC)c(N)n2)C1 (stereo not shown)
OUTPUT: 6.34

###

Quick reference: melting point of the listed items.

INPUT: Return reported melting point; argument: CC[S+]([O-])c1ncc(C(=O)c2cc(F)ccc2OC)c(N)n1 (stereo not shown)
OUTPUT: 150 to 152 °C

INPUT: Return reported melting point; argument: "COc1ccc(F)cc1C(=O)c1cnc(NC2CCN(C(=O)OC(C)(C)C)CC2)nc1N"
OUTPUT: 122 to 124 °C (dec.)

INPUT: Return reported melting point; argument: "COc1ccc(F)c(F)c1C(=O)c1cnc(Cl)nc1Cl"
OUTPUT: 137 to 139 °C

Further cases:
INPUT: Return reported melting point; argument: "COc1ccc(F)c(F)c1C(=O)c1cnc(NC2CCN(S(=O)(=O)NC(C)=O)CC2)nc1N"
OUTPUT: 153 °C (dec.)

INPUT: Return reported melting point; argument: "CCS(=O)(=O)c1ncc(C(=O)c2cc(F)ccc2OC)c(N)n1"
OUTPUT: 174 to 175 °C

INPUT: Return reported melting point; argument: "CS(=O)(=O)N1CCC(Nc2ncc(C(=O)c3ccccc3)c(N)n2)CC1"
OUTPUT: 249 to 250 °C

INPUT: Return reported melting point; argument: "COc1ccc(F)c(F)c1C(=O)c1cnc(NC2CCN(C=O)CC2)nc1N"
OUTPUT: 263 °C (dec.)

INPUT: Return reported melting point; argument: COc1ccc(F)c(F)c1C(O)c1cnc(Cl)nc1Cl (racemic)
OUTPUT: 99 to 101 °C

INPUT: Return reported melting point; argument: "COc1ccc(F)c(F)c1C(=O)c1cnc(NC2CCN(S(N)(=O)=O)CC2)nc1N"
OUTPUT: 217 to 218 °C

INPUT: Return reported melting point; argument: "COc1ccc(F)c(F)c1C(=O)c1cnc(Cl)nc1N"
OUTPUT: 238 to 239 °C (dec.)

###

Molecular target: human cyclin D1-CDK4 (Homo sapiens, UniProt P11802)
Experiment: FlashPlate kinase assay, IC50 measurement, cyclin D1-CDK4
Conditions: Rb protein substrate, 1 μM ATP
Readout: pIC50
Lab note: report pIC50 as minus log10 of the concentration in molar units, number only.

# count of solved cases: 3
INPUT: Return reported pIC50; argument: COc1ccc(F)c(F)c1C(=O)c1cnc(NC2CCN(S(=O)(=O)CCCN3CCN(C)CC3)CC2)nc1N [Example 228]
OUTPUT: 9.00

INPUT: Return reported pIC50; argument: COc1ccccc1C(=O)c1cnc(Nc2ccc(N3CCN(C(C)C)CC3)cc2)nc1N [Example 8]
OUTPUT: 6.77

INPUT: Return reported pIC50; argument: COc1ccc(F)c(F)c1C(=O)c1cnc(N[C@H]2CC[C@H](NS(=O)(=O)CCCN3CCOCC3)CC2)nc1N [Example 294]
OUTPUT: 7.82

Further cases:
INPUT: Return reported pIC50; argument: COc1ccc(F)c(F)c1C(=O)c1cnc(N[C@H]2CC[C@H](NCCO)CC2)nc1N [Example 290]
OUTPUT: 7.70

###

Quick reference: IC50 of the listed items.
Target: UniProt:P24941
Test: FlashPlate kinase assay, IC50 measurement, cyclin E-CDK2
Type: biochemical
Details: Rb protein substrate, 1 μM ATP; read-out: CDK2 IC50
Write the answer as a number in nM, unit excluded.

# count of solved cases: 3
INPUT: Return reported IC50; argument: "COc1ccccc1C(=O)c1cnc(Nc2ccc(N3CCN(C(C)C)CC3)cc2)nc1N"
OUTPUT: 10000

INPUT: Return reported IC50; argument: COC(=O)N1CCCC(Nc2ncc(C(=O)c3ccccc3OC)c(N)n2)C1 (centres unmarked)
OUTPUT: 713

INPUT: Return reported IC50; argument: "COc1ccc(F)c(F)c1C(=O)c1cnc(N[C@H]2CC[C@H](NCCO)CC2)nc1N"
OUTPUT: 5

Further cases:
INPUT: Return reported IC50; argument: "COc1ccc(F)c(F)c1C(=O)c1cnc(N[C@H]2CC[C@H](NS(=O)(=O)CCCN3CCOCC3)CC2)nc1N"
OUTPUT: 5

INPUT: Return reported IC50; argument: "COc1ccc(F)c(F)c1C(=O)c1cnc(N[C@H]2CC[C@H](N3CCCS3(=O)=O)CC2)nc1N"
OUTPUT: 8
